Each recorded value in this set is attributed to the domain aggregation screens of Martell et al. (2025).

Test: soluble fraction after stress (log2 fold change); higher = more stays soluble; pooled small domains, quantitative proteomics;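 also: 20 min heating vs room temperature control held 20 min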
Settings: stress: 75 degC
// N strictly below -1 in soluble fraction (log2); Y otherwise

Past entries and their recorded results:
{"Seq string": "HMVGPAHIGLAVAKDQLPHWERHLTANGVEIEGRMRWDHGGESIYFRDPDAHLLELVTPGIWAN", "Classification": "Y"}
{"Seq string": "HMTDQYEVQNLVGLTVREAQEKEGVKDIFEVREVGSEFSAEYDAGLIVRQSPDAGEQRKGEGLVIEVWVSA", "Classification": "Y"}
{"Seq string": "HMDYTGIPQSLLDLMKKDNIMPMQIQRAVAERNYYPVDTPISNYDPMFIEAKLVGAWDQVLNVISHLDLP", "Classification": "N"}

Textbook exercise: given the entry HMRRVGTALNRSHKVSYGESIQSIAARYNVNPTMLREYNRLKPEATITPGQILRIPPATIAS , state whether its soluble fraction (log2) is greater than or equal to -1.
Y

Textbook exercise: given the entry HMTPESSLHSGLGKILHDALTAKIQLTNFEAKFLSDMQSKYDLNGSFSWLSSKQQTTLEKILAKYGR , state whether its soluble fraction (log2) is greater than or equal to -1.
N

Textbook exercise: given the entry HMNNESEGAIMLRQYSSLSAYLTKYNIDVNSKKAQQYASSLKLAQEKGSAEGQKYLSSISSELDD , state whether its soluble fraction (log2) is greater than or equal to -1.
Y

Textbook exercise: given the entry HMTSEPFYNPRRPQPYWTSETDRHTTYADAVRALAREFSETPEWVESNMGETNDLQEIRRNLSRVKSG , state whether its soluble fraction (log2) is greater than or equal to -1.
Y

Textbook exercise: given the entry HMVRGNLAEELLKLREEEGISFQEAGARSGIARSTISQVVNQGLRLKPNQEESLWRVIEEVRGVKER , state whether its soluble fraction (log2) is greater than or equal to -1.
Y

Textbook exercise: given the entry HMKAPDSQYKPLTDFQTDASFQKLDAYLRNRYPAMLANAVVYDVLRTPDAISYRVNYQVDNKMITINAAVT , state whether its soluble fraction (log2) is greater than or equal to -1.
N

Textbook exercise: given the entry HMDKPVIEDVSFDDLAYMVGERVIIRTHLRSTRDGELKSFNRAGILVSLRNRPGMELEIPRSTVASAQVVW , state whether its soluble fraction (log2) is greater than or equal to -1.
N

---

Assay: soluble fraction after stress (log2 fold change); higher = more stays soluble; pooled small domains, quantitative proteomics
Details: stress: 75 degC
// false (0) strictly below -2 in soluble fraction (log2); true (1) otherwise

{"Seq string": "HMISESLLDEIPGLGETRRNSLLREFGSVAMIRKASAEEIASRVRGIGAEFAAAIHDFLQTH", "Classification": "true (1)"}

Textbook exercise: given the entry HMPSGLFEPIKKSELSIESIDLLKDQIRAFKQADIRITFGFLLDLITKGENPAYVNASKLFEQAWER , state whether its soluble fraction (log2) is greater than or equal to -2.
true (1)

Textbook exercise: given the entry HMILKNVPSNLVNQRLDKVATVLFQTYSRTQIKKWILEGRLLVNGEISNPKDLVNENDEIEINPI , state whether its soluble fraction (log2) is greater than or equal to -2.
false (0)

Textbook exercise: given the entry HMQETKDEGAQVLLNKINALVAAVQGQIITPEEAAIKLATDGDLDLDVDARVAAIEEFNKKLSEAQNN , state whether its soluble fraction (log2) is greater than or equal to -2.
true (1)

Textbook exercise: given the entry HMKRTMVEAAMVAKLFNLTVRRIQQLTQDGVLTTELVDKKRRYDLLLTVQKYIAYLQEKVAK , state whether its soluble fraction (log2) is greater than or equal to -2.
false (0)

Textbook exercise: given the entry HMVMVVDVLKALSNNSSDKFFNTSISNAIKAQEDSQEDFVTLFGIEYEKLSPNNGLAVIFTSQ , state whether its soluble fraction (log2) is greater than or equal to -2.
true (1)

Textbook exercise: given the entry HMGEQVFSRKDLAINGNDLKAVFGWPPGPKYREALDQLFHWVLEDPARNRRETLLAYLHSLYD , state whether its soluble fraction (log2) is greater than or equal to -2.
true (1)

Textbook exercise: given the entry HMEDIKHVVANNIKKYRKEERLTLQQLSYLTGVSKTMLNQIETEKSSPSITILWRISSGLKIPLSKLISSP , state whether its soluble fraction (log2) is greater than or equal to -2.
true (1)
